- study target: UniProt P31153
- protocol details: MAT2A enzymatic assay (colorimetric Phosphate Assay Kit-PiColorLock)
- Type: biochemical
- test context: MAT2A enzymatic assay
# Maximum Inhibition (%) >= 80% gives 1 (yes), anything below gives 0 (no)

>>> label_class("CCn1cc(C(=O)Nc2ccc(OC)cc2)c2cccnc21")
"1 (yes)"
>>> label_class("COc1ccc(NC(=O)c2cccc(-n3cccc3)c2)cc1")
"1 (yes)"
>>> label_class("COc1ccc(NC(=O)c2cn(C)c3ncccc23)cc1F")
"0 (no)"
>>> label_class("COc1ccc(NC(=O)c2cccc(N3CCCCC3)c2)cc1")
"0 (no)"
>>> label_class("CCOC(=O)c1[nH]c2c(c1-c1ccccc1)C(=O)CC(c1ccccc1)C2 (centres unmarked)")
"0 (no)"
>>> label_class("CCOC(=O)c1[nH]c2c(c1Cc1ccccc1OC)C(=O)CC(c1ccc(OC)cc1)C2 (centres unmarked)")
"0 (no)"

====

pIC50: −log10 of the molar value.
Dear all, this message contains pIC50 results, target or system MAT2A (Homo sapiens).
experimental readout: pIC50

>>> result_value("COc1ccc(NC(=O)c2cccc(N3CCCCC3)c2)cc1")
6.11
>>> result_value("COc1ccc(NC(=O)c2cccc(-n3cccc3)c2)cc1")
6.37
>>> result_value("CCn1cc(C(=O)Nc2ccc(OC)cc2)c2cccnc21")
5.54
>>> result_value("CCOC(=O)c1[nH]c2c(c1-c1ccccc1)C(=O)CC(c1ccccc1)C2 (centres unmarked)")
5.17
>>> result_value("COc1ccc(NC(=O)c2cn(C)c3ccccc23)cc1")
5.68
